Hey, just so you know, these numbers are from patent US10980725B2.

- studyTarget: RARγ receptors (Homo sapiens, UniProt P13631)
- Sequence (P13631 185-419 limits assumed): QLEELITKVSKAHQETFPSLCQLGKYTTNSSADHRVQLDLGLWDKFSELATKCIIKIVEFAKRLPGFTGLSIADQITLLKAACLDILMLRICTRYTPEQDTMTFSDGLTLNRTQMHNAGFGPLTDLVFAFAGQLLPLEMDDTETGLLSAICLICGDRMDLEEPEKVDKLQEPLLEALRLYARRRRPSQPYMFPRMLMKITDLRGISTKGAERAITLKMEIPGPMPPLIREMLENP
- assayProtocol: GenBLAzer RAR gamma cell-based assay, agonist mode (AG) and positive allosteric modulator mode (PAM)
- conditionInfo: agonist mode; unit from horizontal axis of FIG. 1; read-out: average EC50, dose response activity on RARγ in agonist mode
pEC50: −log10 of the molar value.
measureName: pEC50

A. CC(/C=C/C=C(\C)c1ccc2c(c1)C(C)(C)C(C)(C)C2(C)C)=C\C(=O)O
B. C=C(c1ccc(C(=O)O)cc1)c1ccc2c(c1)C(C)(C)C(C)(C)C2(C)C
Lookup: # argmax over pEC50 for candidates A and B Answer with the label corresponding to your selection.
Found: A

---

- studyTarget: RARγ receptors (Homo sapiens)
- assayProtocol: GenBLAzer RAR gamma cell-based assay, agonist mode (AG) and positive allosteric modulator mode (PAM)
- conditionInfo: positive allosteric modulator mode; unit from horizontal axis of FIG. 1; read-out: average EC50, dose response activity on RARγ in positive allosteric modulator mode
pEC50: −log10 of the molar value.
measureName: pEC50

I. CC(/C=C/C=C(\C)c1ccc2c(c1)C(C)(C)C(C)(C)C2(C)C)=C\C(=O)O [Compound 1]
II. C=C(c1ccc(C(=O)O)cc1)c1ccc2c(c1)C(C)(C)C(C)(C)C2(C)C [Compound 2]
Lookup: // select label with min value of measured pEC50 from [ I , II ] Answer with the label corresponding to your selection.
Found: II
